Test system: COLO 205 colon
protocol.details: NCI tumour cell line growth inhibition, 48 h

[
  {
    "compound": "COc1ccc(C2CC(c3c(O)ccc4ccccc34)=NN2c2ccc([N+](=O)[O-])cc2[N+](=O)[O-])cc1OC (stereo not given)",
    "TGI": "49 µM"
  },
  {
    "compound": "CCCCNC1=C(C(=O)OCC)C(=O)CO1",
    "TGI": "> 100 µM"
  },
  {
    "compound": "COc1cnc2cc(C(=O)O)c3c([N+](=O)[O-])cccc3c2c1",
    "TGI": "> 100 µM"
  },
  {
    "compound": "O=C1NNC=Nc2ccc(cc2)S(=O)(=O)c2ccc(cc2)N=CNNC1=O",
    "TGI": "> 100 µM"
  },
  {
    "compound": "COc1cc(/C=C2/C(=O)N(C(=O)c3ccccc3O)N=C2C)cc(OC)c1OC",
    "TGI": "> 100 µM"
  },
  {
    "compound": "C/C(CCOC1CCCCO1)=C(\\C)[Si](C)(C)C (stereo not given)",
    "TGI": "> 100 µM"
  },
  {
    "compound": "CCCCCCCCCC[C@@H](O)[C@@H]1CC[C@H]([C@H]2CC[C@@H]([C@@H](O)CCCCCCCCCC[C@H]3CC(CC(C)=O)C(=O)O3)O2)O1 (stereo not given in full)",
    "TGI": "28.8 µM"
  },
  {
    "compound": "Nc1nc2cc3nc(N)c(N)nc3cc2nc1N",
    "TGI": "> 100 µM"
  },
  {
    "compound": "NC(N)=NS(=O)(=O)c1ccc(NCc2c3ccccc3[n+]([O-])c3ccccc23)cc1",
    "TGI": "> 100 µM"
  },
  {
    "compound": "Nc1cc(CO)cc(Nc2nc3ccc(Cl)cc3c3[nH]c4ccccc4c23)c1",
    "TGI": "11.6 µM"
  },
  {
    "compound": "COc1cccc2c(N)c3cccc(C(=O)NCCN(C)C)c3nc12",
    "TGI": "0.592 µM"
  },
  {
    "compound": "COc1ccc2[nH]c(O)c(/C=c3/cc4c(c(-c5cc(OC)c(OC)c(OC)c5)n3)=Nc3ccccc3-4)c2c1",
    "TGI": "21.5 µM"
  },
  {
    "compound": "Cc1nc2c(nc1Cl)nc(Oc1ccc(Cl)cc1)c1ccccc12",
    "TGI": "> 100 µM"
  },
  {
    "compound": "COc1cc(-c2cc(=O)c3cc4c(cc3[nH]2)OCO4)cc(OC)c1O",
    "TGI": "> 10 µM"
  },
  {
    "compound": "Nc1ccn(C2O[C@H](CO)[C@@H](O)[C@@H]2O)c(=O)n1 (stereo not given in full)",
    "TGI": "> 100 µM"
  },
  {
    "compound": "CCOc1cc(NC(C)=O)ccc1C(=O)NNC(=O)c1ccccc1OC(C)=O",
    "TGI": "> 77.9 µM"
  },
  {
    "compound": "COC(=O)C[C@H]1CCC2(OCCO2)[C@]1(C)C(=O)OC",
    "TGI": "> 100 µM"
  },
  {
    "compound": "COc1cccc(-c2cc(=O)c3ccccc3o2)c1N",
    "TGI": "> 100 µM"
  },
  {
    "compound": "COC(=O)C1(C(=O)OC)CC2=C(S(=O)(=O)c3ccccc3)C[C@H](S(=O)(=O)c3ccccc3)[C@H]2C1",
    "TGI": "> 100 µM"
  },
  {
    "compound": "Cn1c(N2NC(=O)C(N=Nc3ccc(S(N)(=O)=O)cc3)C2=O)nc(-c2ccco2)c(C#N)c1=O (stereo not given)",
    "TGI": "11.8 µM"
  }
]

* * *

Each entry below carries its reported TGI.
Tested on: OVCAR-3 ovarian
protocol.details: NCI tumour cell line growth inhibition, 48 h
Where a SMILES comes first, the peptide text is derived from it. The star is where a group is joined. Boc = CC(C)(C)OC(=O)*

[
  {
    "molecule": "COC(=O)C(=O)C(C(=O)C=C(C)C)C(=O)C(=O)Nc1cc(C(F)(F)F)ccc1Cl (centres undefined)",
    "limit.qualifier": ">",
    "TGI / µM": 100
  },
  {
    "molecule": "CC1(C)OCC(COC(=O)C=[N+]=[N-])O1 (centres undefined)",
    "limit.qualifier": ">",
    "TGI / µM": 100
  },
  {
    "molecule": "N#Cc1ccc(C#Cc2ccccc2C#CCCCCO)cc1",
    "limit.qualifier": "=",
    "TGI / µM": 39.6
  },
  {
    "molecule": "O=C1/C(=C/c2ccc(Br)cc2)C=C(c2ccccc2)N1CCc1ccccc1",
    "limit.qualifier": "=",
    "TGI / µM": 7.34
  },
  {
    "molecule": "COC(=O)CNC(=O)C(Cc1ccccc1)NC(=O)C(CCSC)NC(=O)C(Cc1ccc(O)cc1)NC(=O)OC(C)(C)C (centres undefined) (Boc-YMFG-OMe; configuration not given here)",
    "limit.qualifier": "=",
    "TGI / µM": 38.9
  },
  {
    "molecule": "CC1(Cl)C(=O)NC(=O)N(C2CC(N=[N+]=[N-])C(CO)O2)C1N=[N+]=[N-] (centres undefined)",
    "limit.qualifier": ">",
    "TGI / µM": 100
  },
  {
    "molecule": "CC[CH2][Pb]([CH2]CC)([CH2]CC)[O]C(=O)C(F)(F)F",
    "limit.qualifier": "=",
    "TGI / µM": 0.239
  },
  {
    "molecule": "CC1OC(n2cc(F)c(=O)[nH]c2=O)CCC1O (centres undefined)",
    "limit.qualifier": ">",
    "TGI / µM": 100
  },
  {
    "molecule": "CN(C)/N=N/c1nc2c(c(=O)n(C)c(=O)n2C)n1C",
    "limit.qualifier": ">",
    "TGI / µM": 100
  },
  {
    "molecule": "CC(C)OP(=O)(OC(C)C)c1c(Nc2ccccc2)n[nH]c1N",
    "limit.qualifier": ">",
    "TGI / µM": 100
  },
  {
    "molecule": "COc1ccc(C2Oc3c(cc(O)c(OC)c3C)[C@@H]2C)cc1OC (some centres undefined)",
    "limit.qualifier": ">",
    "TGI / µM": 100
  },
  {
    "molecule": "O=C(CCCCCCCCC(=O)NN1C(=O)/C(=C\\c2ccc(O)c(O)c2)SC1c1ccc(Cl)cc1)NN1C(=O)/C(=C\\c2ccc(O)c(O)c2)SC1c1ccc(Cl)cc1 (centres undefined)",
    "limit.qualifier": ">",
    "TGI / µM": 100
  },
  {
    "molecule": "COc1ccc(N2C(=O)C3c4[nH]c5ccc(OCc6ccccc6)cc5c4C4CCC(C(C)(C)C)CC4C3C2=O)cc1 (centres undefined)",
    "limit.qualifier": ">",
    "TGI / µM": 100
  },
  {
    "molecule": "CC1CCC2(C(=O)O)CCC3(C)C(=CCC4C5(C)CC(O)C(O)C(C)(CO)C5C(O)CC43C)C2C1C (centres undefined)",
    "limit.qualifier": "=",
    "TGI / µM": 50.8
  },
  {
    "molecule": "Cc1nnc(Nc2ccccc2)o1",
    "limit.qualifier": ">",
    "TGI / µM": 100
  },
  {
    "molecule": "CC12CC[C@@H](C(C)(C)O)C1[C@@H](O)CC1(C)C2CCC2[C@@]3(C)CC[C@H](O)C(C)(C)C3C(O)C[C@]21C (some centres undefined)",
    "limit.qualifier": "=",
    "TGI / µM": 35.3
  },
  {
    "molecule": "CC(=O)Nc1ccccc1Sc1ccccc1",
    "limit.qualifier": ">",
    "TGI / µM": 100
  },
  {
    "molecule": "Cc1c(C(=O)N/N=C/c2ccc(Cl)cc2)nnn1-c1ccnc2c(C(F)(F)F)cccc12",
    "limit.qualifier": "=",
    "TGI / µM": 26.4
  },
  {
    "molecule": "O=C(O)CN(CCNC(=O)OCC1c2ccccc2-c2ccccc21)CCNC(=O)OCC1c2ccccc2-c2ccccc21",
    "limit.qualifier": "=",
    "TGI / µM": 35.6
  }
]

* * *

System: SNB-19 CNS
protocol.details: NCI tumour cell line growth inhibition, 48 h

[
  {
    "compound": "O=C1C=CC(=Nc2ccc3c(c2)C(Br)c2ccccc2-3)O1 (centres undefined)",
    "target": "SNB-19 CNS",
    "TGI": "> 100 µM"
  },
  {
    "compound": "C=C(CN1CCc2ccccc2C1)c1ccc(C(=O)Nc2cnccn2)cc1",
    "target": "SNB-19 CNS",
    "TGI": "> 100 µM"
  },
  {
    "compound": "C[C@@]12[C@H]3CC[C@@H]1[C@H](O)C(=O)N2CC3",
    "target": "SNB-19 CNS",
    "TGI": "> 100 µM"
  },
  {
    "compound": "N.N.N.O=[N+]([O-])[O-].O=[N+]([O-])[O-].O=[N+]([O-])[O-].O=[N+]([O-])[O-].[Co+3]",
    "target": "SNB-19 CNS",
    "TGI": "> 100 µM"
  },
  {
    "compound": "CCOc1cccc(/C=N/NC(=O)c2ccccc2Nc2ccnc(C(F)(F)F)c2)c1O",
    "target": "SNB-19 CNS",
    "TGI": "> 100 µM"
  },
  {
    "compound": "CC(C)CC(=O)[O-].CC(C)CC(=O)[O-].N.N.N.N.[Co+3].[O-][Cl+3]([O-])([O-])[O-]",
    "target": "SNB-19 CNS",
    "TGI": "> 100 µM"
  },
  {
    "compound": "CCCCCCCCCC[C@@H](O)[C@@H]1CC[C@H]([C@H]2CC[C@@H]([C@@H](O)CCCCCCCCCC[C@H]3CC(CC(C)=O)C(=O)O3)O2)O1 (some centres undefined)",
    "target": "SNB-19 CNS",
    "TGI": "31.3 µM"
  },
  {
    "compound": "O=C(CC(=O)n1nc(-c2ccccc2)c(N=Nc2ccccc2C(=O)O)c1-c1ccccc1)Nc1ccc(Cl)cc1",
    "target": "SNB-19 CNS",
    "TGI": "81.8 µM"
  },
  {
    "compound": "OCCC1(O)CCC(O)CC1 (centres undefined)",
    "target": "SNB-19 CNS",
    "TGI": "> 100 µM"
  }
]
